Reference for the values: patent US8822468B2

- STUDY SYSTEM: cMET receptor tyrosine kinase (GST-cMET (969-1390)) (Homo sapiens)
- Sequence (P08581 969-1390): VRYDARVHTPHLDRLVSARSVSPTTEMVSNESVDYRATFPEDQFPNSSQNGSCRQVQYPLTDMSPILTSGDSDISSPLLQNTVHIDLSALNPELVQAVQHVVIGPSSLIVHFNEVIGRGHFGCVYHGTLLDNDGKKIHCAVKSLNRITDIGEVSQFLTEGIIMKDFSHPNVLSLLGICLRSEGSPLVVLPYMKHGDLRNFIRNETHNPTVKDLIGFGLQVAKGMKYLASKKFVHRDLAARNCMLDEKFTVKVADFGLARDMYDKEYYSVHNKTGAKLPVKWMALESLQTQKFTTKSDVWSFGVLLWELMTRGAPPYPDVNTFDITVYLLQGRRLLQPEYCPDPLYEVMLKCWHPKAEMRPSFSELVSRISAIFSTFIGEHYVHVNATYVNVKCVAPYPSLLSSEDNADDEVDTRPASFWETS
- PROCEDURE SUMMARY: EPK cMET profiling assay (LanthaScreen TR-FRET antibody based kinase phosphorylation assay)
- CONDITION INFO: purified recombinant GST-cMET (969-1390), 2 μM ATP, 50 nM Fluorescein-PolyEAY, 60 minutes at room temperature; read-out: c-Met IC50
MEASUREMENT NAME: IC50 (nM)
Return type: number; implicit unit nM.

Use the examples below as a reference point.
structure=CN(C)[C@@H]1CCN(c2ccc3ncc(Cc4ccc5ncccc5c4)n3n2)C1 units_of_measure=nM readout_number=12
structure=Cc1csc(Nc2ccc3ncc(Cc4ccc5ncccc5c4)n3n2)n1 units_of_measure=nM readout_number=390
structure=c1cnc2ccc(Cc3cnc4ccc(NC5CCCCCCC5)nn34)cc2c1 units_of_measure=nM readout_number=610
structure=C[C@@H](c1cc2cn[nH]c2cc1F)c1cnc2ccc(-c3cnn(C)c3)nn12 units_of_measure=nM readout_number=12

Lab note: need IC50 for c1cnc2ccc(Cc3cnc4ccc(-c5cc6ccccc6s5)nn34)cc2c1 on cMET receptor tyrosine kinase (GST-cMET (969-1390)) (Homo sapiens), anyone have it? 39

Lab note: need IC50 for OCCn1cc(-c2ccc3ncc(Cc4cc5cccnc5cc4F)n3n2)cn1 on cMET receptor tyrosine kinase (GST-cMET (969-1390)) (Homo sapiens), anyone have it? 33
